# testTarget: Induced myeloid leukemia cell differentiation protein Mcl-1 (Homo sapiens)
# Sequence (Q07820 whole entry): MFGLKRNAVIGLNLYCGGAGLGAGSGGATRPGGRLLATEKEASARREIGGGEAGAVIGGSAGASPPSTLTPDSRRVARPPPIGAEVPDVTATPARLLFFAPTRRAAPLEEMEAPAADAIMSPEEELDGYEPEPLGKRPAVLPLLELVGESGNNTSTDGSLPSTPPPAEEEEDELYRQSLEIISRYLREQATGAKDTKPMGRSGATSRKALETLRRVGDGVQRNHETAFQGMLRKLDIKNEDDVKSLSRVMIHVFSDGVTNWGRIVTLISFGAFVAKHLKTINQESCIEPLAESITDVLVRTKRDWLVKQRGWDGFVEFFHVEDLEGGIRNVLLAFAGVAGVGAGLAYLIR
# assayExplanation: regulators of Bim-Mcl-1 interaction, confirmation, biochemical, bead-based flow cytometry, multiplex, HTS hits (AID 2086)
# assayConditions: inactive by the depositor's call
Hi there, I'd appreciate the recorded EC50 for every entry that follows.
Give bare numbers, in µM.

{"compound": "Cc1cc2nn(-c3cccc4ccccc34)nc2cc1N [SMR000076237]", "EC50, µM": 2.25}
{"compound": "O=C(NCc1ccccc1)c1ccc2nc(-c3ccco3)c(-c3ccco3)nc2c1", "EC50, µM": 16}
{"compound": "COc1cc(/N=C2\\SSNC2Cl)c(OC)cc1Cl (stereo not given)", "EC50, µM": 21.5}

Hello, I would appreciate it if you could give EC50 for each entry below.
1. Cc1ccc(-c2nc3c(c(=O)[nH]c(=O)n3Cc3ccccc3)n2C)o1
2. O=C1NC(=O)C2(Cc3c(nc4ccccn4c3=O)N3CCCCCC32)C(=O)N1Cc1ccccc1 (stereo not given) [MLS000083668]

Result:
[34.2, 3.18]
